Data origin: PubChem BioAssay

I'd be grateful if you could share measured inhibition for these entries.
target: L-lactate dehydrogenase (Plasmodium falciparum (isolate CDC / Honduras)) (UniProt Q27743); assay: PfLDH activity inhibition – cell lysate, 3D7 strain, counter-screen for P. falciparum growth inhibition project (AID 2304);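 also: 0% = vehicle and 100% = reference inhibitor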; settings: P. falciparum 3D7 crude extract, LDH APAD/NBT absorbance; at 2 µM; hits give high values
Sequence (Q27743 whole entry, looked up): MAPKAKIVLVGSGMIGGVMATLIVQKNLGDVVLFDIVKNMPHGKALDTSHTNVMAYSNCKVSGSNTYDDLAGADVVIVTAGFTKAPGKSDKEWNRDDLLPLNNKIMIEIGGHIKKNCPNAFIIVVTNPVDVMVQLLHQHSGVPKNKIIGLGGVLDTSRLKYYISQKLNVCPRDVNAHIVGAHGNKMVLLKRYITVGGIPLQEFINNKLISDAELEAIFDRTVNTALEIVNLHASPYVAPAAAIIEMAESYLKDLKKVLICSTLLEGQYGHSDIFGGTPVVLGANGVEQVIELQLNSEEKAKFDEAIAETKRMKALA
All answers are understood in %, so give the number only.

What value of inhibition has been reported for the following molecule? `CC1(C)N=C(N)N=C(N)N1OCCc1ccc2ccccc2c1` 3

Consider next the molecule `COCCNCc1ccc(-c2ccc3c(Nc4ccc(F)cc4Cl)ccnc3c2)o1` in the same way. 2

Consider next the molecule `O=C(/C=C/c1ccc(Br)cc1)NCCCCCN1CCC(c2c[nH]c3ccccc23)CC1` in the same way. -2

Consider next the molecule `NC(=NCCCCC1CCCCC1)c1cccc(C(N)=NCCCCC2CCCCC2)n1` in the same way. 3

Consider next the molecule `CS(=O)(=O)Cc1ccc(Nc2nccc(NC3CCN(c4nccc(C(F)(F)F)n4)CC3)n2)cc1` in the same way. -3

Consider next the molecule `Cc1ccccc1Oc1nc2ccccc2nc1SCC(=O)NC(C)C` in the same way. -1

Consider next the molecule N#Cc1ccc(-c2ccc(OCC(O)CN3CCCN(C(=O)C(c4ccc5c(c4)OCO5)N4CCN(C/C=C/c5ccccc5)CC4)CC3)cc2)cc1 (stereo not drawn) in the same way. 3

Consider next the molecule `CCCCC1(NC(=O)[C@@H](Nc2ccc(C#N)c3ccccc23)C2CCCCC2)CCCCC1` in the same way. 0

Consider next the molecule `Cc1ccc(OC2CCN(c3ccc(C(=O)NC4CC4)cn3)CC2)cc1` in the same way. 4

Consider next the molecule `COc1ccc2nccc([C@@H](O)CN3CC[C@H](NCc4nc5c(cc4F)SCC(=O)N5)[C@H](F)C3)c2c1` in the same way. -4

Consider next the molecule `Oc1cc(Nc2ccnc3cc(I)ccc23)ccc1F` in the same way. 0

Consider next the molecule COc1ccccc1C1CCN(C2CCC(NC(=O)/C=C/c3cccc(Cl)c3)CC2)CC1 (stereo not drawn) in the same way. 3

Consider next the molecule COc1ccc2nccc(N(C)CC3(O)CCC(NCc4ccc5c(n4)NC(=O)CS5)CC3)c2n1 (stereo not drawn) in the same way. -1

Consider next the molecule `O=C(NCc1ccccc1)Nc1ccc(-c2ccc(-c3nc4ccc(C(F)(F)F)cc4[nH]3)cc2)cc1` in the same way. 4

Consider next the molecule `COc1ccc2nccc([C@@H](O)CN3CCC(NCc4nc5c(C#N)cccc5[nH]4)CC3)c2c1` in the same way. -5

Consider next the molecule `Cc1cc(NCCC(=O)Nc2ccccc2)nc(NCCc2ccccc2)n1` in the same way. -3

Consider next the molecule `Cn1cncc1CCCN(Cc1ccc(-c2ccc(C(F)(F)F)cc2)cc1)C(=O)Cn1c(CCc2cccc(F)c2F)cc(=O)c2cccnc21` in the same way. -2

Consider next the molecule CCC(C)NC(=O)CN1CN(c2ccccc2)C2(CCN(C(=O)c3ccc(C(C)(C)C)cc3)CC2)C1=O (stereo not drawn) in the same way. -4

Consider next the molecule `COc1ccccc1-c1ccc2nnc(SCC(=O)Nc3ccc4c(c3)OCCO4)n2n1` in the same way. -7

Consider next the molecule `Fc1ccc([C@H]2N=C(SCCSC3=N[C@H](c4ccc(F)cc4)[C@H](c4ccc(F)cc4)N3)N[C@H]2c2ccc(F)cc2)cc1` in the same way. -5

Consider next the molecule `N/C(=N/C(=NCCCCCCN=C(/N=C(/N)Nc1ccc(Cl)cc1)N1CCCCC1)N1CCCCC1)Nc1ccc(Cl)cc1` in the same way. 0

Consider next the molecule `CN1CCN=C1c1ccc(NC(=O)Nc2ccc(C3=NCCN3C)cc2)cc1` in the same way. -1

Consider next the molecule Cc1ccc2c(c1[N+](=O)[O-])N=NCC2Oc1ccccc1 (stereo not drawn) in the same way. -4

Consider next the molecule `Cc1[nH]c(C)c(-c2ccc(-c3ccc(C#N)cc3)nc2)c(=O)c1Br` in the same way. 7

Consider next the molecule `CCOc1c(N2CCN(CCCCNC(=O)c3ccc(NC(=O)c4ccc(Cl)cc4)cc3)CC2)ccc2ccccc12` in the same way. 0

Consider next the molecule `Cc1cc(N[C@@H](CC(C)C)C(=O)Nc2ccccc2)nc(NCC2CCCCC2)n1` in the same way. 1

Consider next the molecule `CC(C)(C)c1ccc(OCCCON2C(N)=NC(N)=NC2(C)C)cc1` in the same way. -4

Consider next the molecule `COc1cc2cc(C(=O)Nc3ccccc3)c(N)nc2cc1OC` in the same way. -1

Consider next the molecule `COc1ccc2nc(C)cc(NN=Cc3ccc([N+](=O)[O-])o3)c2c1` in the same way. -5

Consider next the molecule Cc1ccc(Oc2c(-c3ccccc3CN3CCCC3CN(C)C)cnn(C)c2=O)cn1 (stereo not drawn) in the same way. -4

Consider next the molecule COc1cccc(C(=O)NC(c2ccc(Cl)cc2Cl)c2cc(Cl)c3cccnc3c2O)c1 (stereo not drawn) in the same way. -8

Consider next the molecule FC(F)(F)c1ccc2nc(-c3ccc(-c4cccc(CNCC5CCCO5)c4)cc3)[nH]c2c1 (stereo not drawn) in the same way. -5

Consider next the molecule `O=C(Nc1ccc(Cl)c(-c2nc3ccccc3[nH]2)c1)c1ccc(-c2ccc(Cl)cc2)o1` in the same way. 0

Consider next the molecule `CN(C)CCN(C)Cc1cccc(-c2cccc(NC(=O)c3cccc(C#N)c3)c2)c1` in the same way. -1

Consider next the molecule `Cc1cccc2[nH]c(-c3cccc(-c4cccc(CN5CCC(CO)CC5)c4)c3)nc12` in the same way. -6

Consider next the molecule `CCC(C)(C)c1ccc(OCCCC(=O)Nc2ccc(Cl)c([N+](=O)[O-])c2)c(C(C)(C)CC)c1` in the same way. -8

Consider next the molecule CN(C)c1ccc(CN2CCCCC(NC(=O)c3cc(-c4ccccc4Cl)cs3)C2)cc1 (stereo not drawn) in the same way. -3

Consider next the molecule `c1ccc(Cn2nnnc2-c2cccc(Nc3ccnc4cc(-c5nccs5)ccc34)c2)cc1` in the same way. -4
